Origin of values: ChEMBL document CHEMBL5380876

Test system: HCC1806
Assay: Cytotoxicity against human HCC1806 cells assessed as reduction in cell viability by CCK8 assay
Assay type: functional, cell-based
pIC50: −log10 of the molar value.

{"molecule": "COc1ccc(-c2ccc(-c3nc(-c4ccc(N5CCN(C)CC5)cc4)c(-c4ccc(N5CCN(C)CC5)cc4)[nH]3)cc2)cc1", "qualifier-operator": "=", "pIC50": 5.43}
{"molecule": "CN1CCN(c2ccc(-c3nc(-c4ccc(-c5ccccn5)cc4)[nH]c3-c3ccc(N4CCN(C)CC4)cc3)cc2)CC1", "qualifier-operator": "=", "pIC50": 5.15}
{"molecule": "CN1CCN(c2ccc(-c3nc(-c4ccc(-c5ccccc5)cc4)[nH]c3-c3ccc(N4CCN(C)CC4)cc3)cc2)CC1", "qualifier-operator": "=", "pIC50": 5.25}
{"molecule": "COc1ccccc1-c1ccc(-c2nc(-c3ccc(N4CCN(C)CC4)cc3)c(-c3ccc(N4CCN(C)CC4)cc3)[nH]2)cc1", "qualifier-operator": "<", "pIC50": 4.70}
{"molecule": "CN1CCN(c2ccc(-c3nc(-c4ccc(-c5ccccc5C(F)(F)F)cc4)[nH]c3-c3ccc(N4CCN(C)CC4)cc3)cc2)CC1", "qualifier-operator": "=", "pIC50": 5.72}
{"molecule": "CN1CCN(c2ccc(-c3nc(-c4ccc(-c5ccc(C(F)(F)F)cc5)cc4)[nH]c3-c3ccc(N4CCN(C)CC4)cc3)cc2)CC1", "qualifier-operator": "=", "pIC50": 5.83}

###

Assay: Cytotoxicity against human MCF-10A cells assessed as reduction in cell viability by CCK8 assay
Type: toxicity, cell-based
pIC50: −log10 of the molar value.

{"molecule": "CN1CCN(c2ccc(-c3nc(-c4ccc(-c5ccccc5)cc4)[nH]c3-c3ccc(N4CCN(C)CC4)cc3)cc2)CC1", "qualifier-operator": "=", "pIC50": 5.03}
{"molecule": "CN1CCN(c2ccc(-c3nc(-c4ccc(-c5ccc(C(F)(F)F)cc5)cc4)[nH]c3-c3ccc(N4CCN(C)CC4)cc3)cc2)CC1", "qualifier-operator": "=", "pIC50": 5.06}
{"molecule": "COc1ccc(-c2ccc(-c3nc(-c4ccc(N5CCN(C)CC5)cc4)c(-c4ccc(N5CCN(C)CC5)cc4)[nH]3)cc2)cc1", "qualifier-operator": "=", "pIC50": 5.01}
{"molecule": "CN1CCN(c2ccc(-c3nc(-c4ccc(-c5ccccn5)cc4)[nH]c3-c3ccc(N4CCN(C)CC4)cc3)cc2)CC1", "qualifier-operator": "=", "pIC50": 5.11}
{"molecule": "CN1CCN(c2ccc(-c3nc(-c4ccc(-c5ccccc5C(F)(F)F)cc4)[nH]c3-c3ccc(N4CCN(C)CC4)cc3)cc2)CC1", "qualifier-operator": "<", "pIC50": 4.70}
{"molecule": "COc1ccccc1-c1ccc(-c2nc(-c3ccc(N4CCN(C)CC4)cc3)c(-c3ccc(N4CCN(C)CC4)cc3)[nH]2)cc1", "qualifier-operator": "<", "pIC50": 4.70}

###

Measured T by item
Tested on: Quadruplex DNA
Assay: Stabilization of c-Myc G4 quadruplex DNA (unknown origin) assessed as temperature at which 50% protein unfold by circular dichroism melting assay
Type: nucleic-acid assay
measured-metric: T (°C)

{"molecule": "COc1ccc(-c2ccc(-c3nc(-c4ccc(N5CCN(C)CC5)cc4)c(-c4ccc(N5CCN(C)CC5)cc4)[nH]3)cc2)cc1", "measured-metric": "T", "quantity-unit": "°C", "observed-result": 36.2}
{"molecule": "CN1CCN(c2ccc(-c3nc(-c4ccc(-c5ccc(C(F)(F)F)cc5)cc4)[nH]c3-c3ccc(N4CCN(C)CC4)cc3)cc2)CC1", "measured-metric": "T", "quantity-unit": "°C", "observed-result": 34.6}
{"molecule": "CN1CCN(c2ccc(-c3nc(-c4ccc(-c5ccccc5C(F)(F)F)cc4)[nH]c3-c3ccc(N4CCN(C)CC4)cc3)cc2)CC1", "measured-metric": "T", "quantity-unit": "°C", "observed-result": 29.6}
{"molecule": "COc1ccccc1-c1ccc(-c2nc(-c3ccc(N4CCN(C)CC4)cc3)c(-c3ccc(N4CCN(C)CC4)cc3)[nH]2)cc1", "measured-metric": "T", "quantity-unit": "°C", "observed-result": 23.5}
{"molecule": "CN1CCN(c2ccc(-c3nc(-c4ccc(-c5ccccn5)cc4)[nH]c3-c3ccc(N4CCN(C)CC4)cc3)cc2)CC1", "measured-metric": "T", "quantity-unit": "°C", "observed-result": 34.4}
{"molecule": "CN1CCN(c2ccc(-c3nc(-c4ccc(-c5ccccc5)cc4)[nH]c3-c3ccc(N4CCN(C)CC4)cc3)cc2)CC1", "measured-metric": "T", "quantity-unit": "°C", "observed-result": 36.8}
